system: CP185; assay: qHTS profiling for inhibitors of Plasmodium falciparum proliferation (AID 504749); also: nearly all actives have a fitted effect of over 60% in size; conditions: P. falciparum in erythrocytes, SYBR Green DNA, 72 h; series mostly up to 28.7 µM
Inconclusive results are not listed. The source made the active and inactive calls. Calls follow the shape of the dose curve; as a rule, active = well fitted inhibition curve with a large enough effect; inconclusive = small, poorly fitted or top-dose-only effect; inactive = flat fitted curve, though single readings scatter.
Response enum: yes (active), no (inactive)

Reference set, count: 4
1. COc1cc2c(cc1OC)[C@@H](Cc1cc(OC)c(OC)c(OC)c1)[N+](C)(CCCOC(=O)CC/C=C/CCC(=O)OCCC[N+]1(C)CCc3cc(OC)c(OC)cc3[C@H]1Cc1cc(OC)c(OC)c(OC)c1)CC2 (stereo not given in full)    no
2. C=C1C(CCl)(CCl)C2(Cl)C(Cl)C(Cl)C1(Cl)C2(Cl)Cl (stereo not given)    yes
3. CCOC(C)OCC    no
4. O=c1[nH]c(=O)n([C@H]2C[C@H](O)[C@@H](CO)O2)cc1/C=C/Br    no

Alright, here's another compound for you.
Request: // param item: CN(C)CCOc1ccc(/C(=C(/CCCl)c2ccccc2)c2ccccc2)cc1 ; yields the recorded call
Result: no

====

target: Glutathione peroxidase 1 (Homo sapiens) (UniProt P07203); assay: Primary qHTS Assay for Inhibitors of Recombinant Selenoprotein Glutathione Peroxidase 1 (GPX1) (AID 1845191); details: recombinant GPX1, GR-coupled NADPH fluorescence, 15 min; series mostly up to 48.8 µM; also: nearly all actives have a fitted effect of over 65% in size; also: potency is read from the fitted curve at half-maximal effect
Sequence (P07203 whole entry, looked up): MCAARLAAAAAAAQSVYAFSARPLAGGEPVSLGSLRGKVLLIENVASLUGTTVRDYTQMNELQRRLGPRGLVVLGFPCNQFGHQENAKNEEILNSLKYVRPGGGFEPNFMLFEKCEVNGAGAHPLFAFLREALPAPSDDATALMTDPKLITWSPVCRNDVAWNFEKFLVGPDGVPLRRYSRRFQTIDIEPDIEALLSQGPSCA
Results filed as inconclusive are left out. The source made the active and inactive calls. The call rests on the fitted dose curve; in most records, active means well fitted inhibition curve with a large enough effect; inconclusive means small, poorly fitted or top-dose-only effect; inactive means flat fitted curve, though single readings scatter.
Measure name: Potency

1) C=CCOc1ccc(CC(=O)O)cc1Cl    inactive
2) CC(=O)NCCCS(=O)(=O)O    inactive
3) NC(=O)[C@@H]1C[C@]2(NC(=O)NC2=O)c2cc(F)ccc2O1    inactive
4) CC(C)(C)c1ccc(CN2CCN(C(c3ccccc3)c3ccc(Cl)cc3)CC2)cc1 (stereo unspecified)    inactive
5) C=CC1=C(C(=O)O)N2C(=O)[C@@H](NC(=O)/C(=N\O)c3csc(N)n3)[C@H]2SC1 (stereo in doubt)    11.4 µM (active)

Lab note: measured Potency of CO[C@@]1(NC(=O)C2SC(=C(C(N)=O)C(=O)O)S2)C(=O)N2C(C(=O)O)=C(CSc3nnnn3C)CS[C@@H]21 (stereo partly specified) was 10.1 µM (active)

Lab note: measured Potency of CC(C)(C)C(=O)OCC(=O)[C@H]1CC[C@H]2[C@@H]3CCC4=CC(=O)CC[C@]4(C)[C@H]3CC[C@]12C was inactive

Lab note: measured Potency of C[C@H]1O[C@@H](O[C@H]2[C@@H](O)C[C@H](O[C@H]3[C@@H](O)C[C@H](O[C@H]4CC[C@@]5(C)[C@H](CC[C@@H]6[C@@H]5C[C@@H](O)[C@]5(C)[C@@H](C7=CC(=O)OC7)CC[C@]65O)C4)O[C@@H]3C)O[C@@H]2C)C[C@H](O)[C@@H]1O was inactive

Lab note: measured Potency of CCCCCCCCCCCCCCCCCC(=O)OCC(C)O (stereo unspecified) was inactive

Lab note: measured Potency of COc1ccc([C@@H]2CC(=O)c3c(O)cc(O[C@@H]4O[C@H](CO[C@@H]5O[C@@H](C)[C@H](O)[C@@H](O)[C@H]5O)[C@@H](O)[C@H](O)[C@H]4O)cc3O2)cc1O was inactive

Lab note: measured Potency of CCCCCc1ccc(C)cc1O was inactive

Lab note: measured Potency of CC1CC(OC(=O)C(O)c2ccccc2)CC(C)(C)C1 (stereo unspecified) was inactive

Lab note: measured Potency of CCC(Oc1ccccc1)C(=O)N[C@@H]1C(=O)N2[C@@H]1SC(C)(C)[C@@H]2C(=O)O (stereo partly specified) was inactive

Lab note: measured Potency of Cc1cc(O)c2c(c1)O[C@@]1(C)CC[C@H]3C(C)(C)CCCC34CO[C@@H]2[C@H]41 (stereo partly specified) was inactive

====

system: CP269; test: qHTS profiling for inhibitors of Plasmodium falciparum proliferation (AID 504749); also: nearly all actives have a fitted effect of over 60% in size; details: P. falciparum in erythrocytes, SYBR Green DNA, 72 h; series mostly up to 28.7 µM
Inconclusive results are not listed. The source made the active and inactive calls. Calls come from the whole dose curve; as a rule, active = well fitted inhibition curve with a large enough effect; inconclusive = small, poorly fitted or top-dose-only effect; inactive = flat fitted curve, though single readings scatter.
Response enum: y (active), n (inactive)

1. CCC(=O)c1ccc2c(c1)N(CCCN1CCN(CCO)CC1)c1ccccc1S2    y
2. Nc1ncnc2c1ncn2[C@H]1CC[C@@H](CO)O1    n
3. COc1ccccc1N1CCN(CCCC(=O)c2ccc(F)cc2)CC1    n
4. O=C(O)/C=C/C(=O)Nc1ccc(S(=O)(=O)Nc2nccs2)cc1    n

Request: // param item: O=C1c2ccccc2C(=O)C1c1ccc(F)cc1 ; yields the recorded call
Result: n

Request: // param item: O=P(O)(O)CP(=O)(O)O ; yields the recorded call
Result: n

Request: // param item: CCCCCCCCCCCCCCCCCC(=O)OCC(C)O (configuration not stated) ; yields the recorded call
Result: n

Request: // param item: O=C(O)COc1ccccc1/C=N/NC(=O)c1ccncc1 ; yields the recorded call
Result: n

Request: // param item: OC[C@H]1O[C@@H]2O[C@H]3[C@H](O)[C@@H](O)[C@@H](O[C@H]4[C@H](O)[C@@H](O)[C@@H](O[C@H]5[C@H](O)[C@@H](O)[C@@H](O[C@H]6[C@H](O)[C@@H](O)[C@@H](O[C@H]7[C@H](O)[C@@H](O)[C@@H](O[C@H]1[C@H](O)[C@H]2O)O[C@@H]7CO)O[C@@H]6CO)O[C@@H]5CO)O[C@@H]4CO)O[C@@H]3CO ; yields the recorded call
Result: n

Request: // param item: CC(=O)Nc1ccc(NC(=S)NC(=O)c2ccc(C(C)(C)C)cc2)cc1 ; yields the recorded call
Result: n

Request: // param item: Nc1ncnc2c1ncn2CCOCP(=O)(O)O ; yields the recorded call
Result: n

Request: // param item: COc1cc(S(C)=O)ccc1-c1nc2ncccc2[nH]1 (configuration not stated) ; yields the recorded call
Result: n

Request: // param item: CCOC(=O)[C@@H](N)CS ; yields the recorded call
Result: n

Request: // param item: N=C(N)n1cccn1 ; yields the recorded call
Result: n

====

assay: Cell Viability - LYMP2-022 (AID 987); settings: LYMP2-022 lymphoblastoid cell viability; series mostly up to 92.2 µM;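 also: cells exposed to compound for 24 hr; nearly all actives have a fitted effect of over 55% in size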
Records with an inconclusive call do not appear. The source made the active and inactive calls. Calls follow the shape of the dose curve; as a rule, active = well fitted cell-killing curve with a large enough effect; inconclusive = small, poorly fitted or top-dose-only effect; inactive = flat fitted curve, though single readings scatter.
Response enum: true (active), false (inactive)

1) CCOC(C)OCC    false
2) Nc1ncnc2c1ncn2[C@H]1CC[C@@H](CO)O1    false

Request: // param item: [O-][N+](=Nc1ccccc1)c1ccccc1 ; yields the recorded call
Result: false

Request: // param item: Nc1ccc(N=Nc2ccccc2)c(N)n1 ; yields the recorded call
Result: false

Request: // param item: CC(C)(C)CC(C)(C)c1ccc(OCCO)cc1 ; yields the recorded call
Result: false

Request: // param item: C[C@H](CCC(=O)O)[C@H]1CC[C@H]2[C@@H]3CC[C@@H]4C[C@H](O)CC[C@]4(C)[C@H]3C[C@H](O)[C@]12C ; yields the recorded call
Result: false

====

System: SC27B
Experiment: qHTS profiling for inhibitors of Plasmodium falciparum proliferation (AID 504749); also: nearly all actives have a fitted effect of over 60% in size
Conditions: P. falciparum in erythrocytes, SYBR Green DNA, 72 h; series mostly up to 28.7 µM
Method: NIH National Institute of Allergy and Infectious Diseases [NIAID] NIH Chemical Genomics Center [NCGC] […] Because mature erythrocytes lack DNA, only Plasmodium-derived DNA is detected. NCGC Assay Protocol Summary: The SYBR Green viability assay was adapted from a method described previously (Plouffe et al., 2008). […] The following morning, fluorescence intensity at 485(14) nm excitation and 535(25) nm emission wavelengths was measured on an EnVision (Perkin Elmer) plate reader. […]
Inconclusive results are not listed. The source made the active and inactive calls. Calls follow the shape of the dose curve; as a rule, active = well fitted inhibition curve with a large enough effect; inconclusive = small, poorly fitted or top-dose-only effect; inactive = flat fitted curve, though single readings scatter.
Measure name: outcome

Please review the entries below; each comes with its answer.
1. Cc1ncc(C[n+]2csc(CCO)c2C)c(N)n1    inactive
2. CCOC(C)OCC    inactive
3. C[C@H](CCCC(C)(C)O)[C@H]1CC[C@H]2[C@@H]3CC=C4C[C@@H](O)CC[C@]4(C)[C@H]3CC[C@]12C    inactive
4. CCCCCCCCCCCC(=O)OCC(O)CO (stereo unspecified)    inactive
5. CCCCCCCCCCCCCCCCCCCCCC(=O)Nc1ccn([C@@H]2O[C@H](CO)[C@@H](O)[C@@H]2O)c(=O)n1    inactive
6. N[C@H](CC(=O)O)C(=O)O    inactive
7. FC(F)OC(Cl)C(F)(F)F (stereo unspecified)    inactive
8. CCOC(=O)Cc1ccc(-c2ccccc2)cc1    inactive
9. Cc1cc(-c2ccc(N=Nc3c(S(=O)(=O)O)cc4cc(S(=O)(=O)O)cc(N)c4c3O)c(C)c2)ccc1N=Nc1c(S(=O)(=O)O)cc2cc(S(=O)(=O)O)cc(N)c2c1O    inactive
10. Oc1cccc(O)c1O    inactive

For the next question, use this molecule.
Lab note: measured outcome of OC1OC[C@@H](O)[C@H](O)[C@@H]1O (stereo partly specified) was inactive
